- System: NO production in LPS-activated RAW 264.7 cells
- assay-notes: Inhibition of NO production in LPS-activated RAW 264.7 cells (Griess reaction)
- Format: cell-based
- test-conditions: Mus musculus, RAW264.7; RAW 264.7, 1 μg/mL LPS, 24 h; mean ± SD (n = 3); read-out: IC50 (NO inhibitory activity)
- Procedure: The macrophage RAW 264.7 cells were obtained from the Cell Bank of the Chinese Academy of Sciences (Shanghai, China). […] The inhibition effects on LPS-stimulated NO production was evaluated by the Griess reaction assay. The experiments were performed in triplicate, and the data were expressed as the means ± SD of three independent experiments.
readout-name: IC50

Solved entries (count: 2):
Prompt: Would you mind telling me what IC50 value was observed for CCOC(=O)/C=C/c1ccc(O)c(OC)c1 [Compound 21, 3-O-ethyl ferulate] ?
Completion: 28.6 µM

Prompt: Same for COc1cc(C2OCC3C(c4cc(OC)c(OC5OC(CO)C(O)C(O)C5O)c(OC)c4)OCC23)cc(OC)c1O [Compound 11, syringaresinol-4′-O-β-D-glucopyranoside]
Completion: > 200 µM

Please find the next compound below.
Prompt: Would you mind telling me what IC50 value was observed for COc1cc([C@@H](O)[C@@H](CO)Oc2c(OC)cc(/C=C/CO)cc2OC)cc(OC)c1O[C@@H]1O[C@H](CO)[C@@H](O)[C@H](O)[C@H]1O [Compound 14, picraquassioside C] ?
Completion: > 200 µM
